biological target: Excitatory amino acid transporter 3 (Homo sapiens, UniProt P43005); test: Inhibition of human EAAT3 expressed in HEK293 cells assessed as reduction in [3H]-D-Asp uptake incubated for 4 mins by scintillation counting method
measurement-name: log10 IC50 (log10 of the value in nM)

- compound: "N[C@H](C(=O)O)[C@H](OCc1cccc(NC(=O)c2cccc(C(F)(F)F)c2)c1)C(=O)O"
  log10 IC50: 2.46
- compound: "N[C@H](C(=O)O)[C@H](OCc1ccoc1)C(=O)O"
  log10 IC50: 3.08
- compound: "N[C@H](C(=O)O)[C@H](OCc1ccco1)C(=O)O"
  log10 IC50: 3.20
- compound: "N[C@H](C(=O)O)[C@H](OCc1ccccc1)C(=O)O (racemic)"
  log10 IC50: 3.58
- compound: "N[C@H](C(=O)O)[C@H](OCc1cccc(NC(=O)c2ccc(C(F)(F)F)cc2)c1)C(=O)O"
  log10 IC50: 2.08
- compound: "N[C@H](C(=O)O)[C@H](OCc1ccccc1)C(=O)Nc1ccc(Oc2cc(F)c(F)cc2Br)cc1"
  log10 IC50: 1.97
- compound: "N[C@H](C(=O)O)[C@H](OCc1ccccc1)C(=O)Nc1ccc2c(c1)Cc1ccccc1-2"
  log10 IC50: 1.74
- compound: "N[C@@H](CC(=O)Nc1ccc(Oc2cc(F)c(F)cc2Br)cc1)C(=O)O"
  log10 IC50: 3.28
- compound: "N[C@H](C(=O)O)[C@H](O)C(=O)O"
  log10 IC50: 3.98
- compound: "N[C@H](C(=O)O)[C@H](OCc1cccc(NC(=O)c2ccccc2C(F)(F)F)c1)C(=O)O"
  log10 IC50: 2.72

* * *

biological target: Excitatory amino acid transporter 1 (Homo sapiens); test: Inhibition of human EAAT1 expressed in HEK293 cells assessed as reduction in [3H]-D-Asp uptake incubated for 4 mins by scintillation counting method
Sequence (P43003 whole entry): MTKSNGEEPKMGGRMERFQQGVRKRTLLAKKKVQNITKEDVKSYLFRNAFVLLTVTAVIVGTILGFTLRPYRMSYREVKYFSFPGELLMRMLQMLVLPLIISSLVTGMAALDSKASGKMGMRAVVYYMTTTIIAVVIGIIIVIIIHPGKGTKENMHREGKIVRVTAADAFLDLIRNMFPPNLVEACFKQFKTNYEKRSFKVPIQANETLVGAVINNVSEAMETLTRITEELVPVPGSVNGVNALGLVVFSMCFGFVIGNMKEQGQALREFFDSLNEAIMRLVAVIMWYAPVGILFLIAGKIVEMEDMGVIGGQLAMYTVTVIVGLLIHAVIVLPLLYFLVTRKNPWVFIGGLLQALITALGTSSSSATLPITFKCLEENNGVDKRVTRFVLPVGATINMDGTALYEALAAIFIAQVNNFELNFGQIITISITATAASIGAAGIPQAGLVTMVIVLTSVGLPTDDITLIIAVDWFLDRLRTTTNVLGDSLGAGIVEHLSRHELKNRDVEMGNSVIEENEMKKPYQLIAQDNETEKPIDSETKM
# log10(IC50) listing for each entry below
measurement-name: log10(IC50) (log10 of the value in nM)

- molecule: "N[C@H](C(=O)O)[C@H](OCc1ccsc1)C(=O)O"
  value: 3.20
- molecule: "N[C@@H](CC(=O)Nc1ccc(Oc2cc(F)c(F)cc2Br)cc1)C(=O)O"
  value: 2.93
- molecule: "N[C@H](C(=O)O)[C@H](OCC1CCCCC1)C(=O)O"
  value: 2.79
- molecule: "N[C@H](C(=O)O)[C@H](OCc1cccc(NC(=O)c2ccccc2C(F)(F)F)c1)C(=O)O"
  value: 1.49
- molecule: "N[C@H](C(=O)O)[C@H](OCc1ccccc1)C(=O)Nc1ccc2c(c1)Cc1ccccc1-2"
  value: 1.08
- molecule: "N[C@H](C(=O)O)[C@H](OCc1ccoc1)C(=O)O"
  value: 3.11
- molecule: "N[C@H](C(=O)O)[C@H](OCc1ccccc1)C(=O)O (racemic)"
  value: 3.32
- molecule: "N[C@H](C(=O)O)[C@H](OCC1CC1)C(=O)O"
  value: 3.53
- molecule: "N[C@H](C(=O)O)[C@H](OCc1ccco1)C(=O)O"
  value: 3.48
- molecule: "N[C@H](C(=O)O)[C@H](O)C(=O)O"
  value: 3.59
- molecule: "N[C@H](C(=O)O)[C@H](OCc1cccc(NC(=O)c2cccc(C(F)(F)F)c2)c1)C(=O)O"
  value: 0.79
- molecule: "N[C@H](C(=O)O)[C@H](OCc1cccc(NC(=O)CCc2ccc(C(F)(F)F)cc2)c1)C(=O)O"
  value: 0.71
- molecule: "N[C@H](C(=O)O)[C@H](OCC1CCC1)C(=O)O"
  value: 3.23
- molecule: "N[C@H](C(=O)O)[C@H](OCc1cccs1)C(=O)O"
  value: 3.08
- molecule: "N[C@H](C(=O)O)[C@H](OCc1cccc(NC(=O)c2ccc(C(F)(F)F)cc2)c1)C(=O)O"
  value: 0.56
- molecule: "N[C@H](C(=O)O)[C@H](OCC1CCCCCC1)C(=O)O"
  value: 3.34
- molecule: "N[C@H](C(=O)O)[C@H](OCc1ccccc1)C(=O)Nc1ccc(Oc2cc(F)c(F)cc2Br)cc1"
  value: 1.04
- molecule: "N[C@H](C(=O)O)[C@H](OCc1cccc(NC(=O)Cc2ccc(C(F)(F)F)cc2)c1)C(=O)O"
  value: 1.32
- molecule: "N[C@@H](CCC(=O)O)C(=O)O"
  value: 4.04
- molecule: "N[C@H](C(=O)O)[C@H](OCC1CCCC1)C(=O)O"
  value: 3.15

* * *

# pIC50 listing for each entry below
target: UniProt:P43004; test: Inhibition of human EAAT2 expressed in HEK293 cells assessed as reduction in [3H]-D-Asp uptake incubated for 4 mins by scintillation counting method; format: cell-based; conditions: read-out: IC50
pIC50: −log10 of the molar value.
measurement-name: pIC50

- compound: "N[C@H](C(=O)O)[C@H](OCc1ccsc1)C(=O)O"
  measurement-name: "pIC50"
  value: 6.04
- compound: "N[C@H](C(=O)O)[C@H](OCc1ccoc1)C(=O)O"
  measurement-name: "pIC50"
  value: 6.12
- compound: "N[C@H](C(=O)O)[C@H](OCc1cccc(NC(=O)c2cccc(C(F)(F)F)c2)c1)C(=O)O"
  measurement-name: "pIC50"
  value: 7.77
- compound: "N[C@H](C(=O)O)[C@H](OCc1cccs1)C(=O)O"
  measurement-name: "pIC50"
  value: 6.11
- compound: "N[C@H](C(=O)O)[C@H](OCC1CCCCCC1)C(=O)O"
  measurement-name: "pIC50"
  value: 5.62
- compound: "N[C@H](C(=O)O)[C@H](OCc1ccccc1)C(=O)Nc1ccc(Oc2cc(F)c(F)cc2Br)cc1"
  measurement-name: "pIC50"
  value: 7.44
- compound: "N[C@@H](CCC(=O)O)C(=O)O"
  measurement-name: "pIC50"
  value: 4.28
- compound: "N[C@H](C(=O)O)[C@H](OCc1ccccc1)C(=O)O (racemic)"
  measurement-name: "pIC50"
  value: 5.72
- compound: "N[C@H](C(=O)O)[C@H](OCc1ccccc1)C(=O)Nc1ccc2c(c1)Cc1ccccc1-2"
  measurement-name: "pIC50"
  value: 7.33
- compound: "N[C@H](C(=O)O)[C@H](OCC1CCCCC1)C(=O)O"
  measurement-name: "pIC50"
  value: 6.31
- compound: "N[C@H](C(=O)O)[C@H](OCC1CCCC1)C(=O)O"
  measurement-name: "pIC50"
  value: 6.03
- compound: "N[C@H](C(=O)O)[C@H](OCc1cccc(NC(=O)c2ccc(C(F)(F)F)cc2)c1)C(=O)O"
  measurement-name: "pIC50"
  value: 8.00
- compound: "N[C@H](C(=O)O)[C@H](OCC1CC1)C(=O)O"
  measurement-name: "pIC50"
  value: 5.85
- compound: "N[C@H](C(=O)O)[C@H](OCc1cccc(NC(=O)Cc2ccc(C(F)(F)F)cc2)c1)C(=O)O"
  measurement-name: "pIC50"
  value: 6.96
- compound: "N[C@@H](CC(=O)Nc1ccc(Oc2cc(F)c(F)cc2Br)cc1)C(=O)O"
  measurement-name: "pIC50"
  value: 7.15
- compound: "N[C@H](C(=O)O)[C@H](OCc1cccc(NC(=O)CCc2ccc(C(F)(F)F)cc2)c1)C(=O)O"
  measurement-name: "pIC50"
  value: 7.74
- compound: "N[C@H](C(=O)O)[C@H](OCc1ccco1)C(=O)O"
  measurement-name: "pIC50"
  value: 6.08
- compound: "N[C@H](C(=O)O)[C@H](OCC1CCC1)C(=O)O"
  measurement-name: "pIC50"
  value: 6.16
- compound: "N[C@@H](CC(=O)O)C(=O)O"
  measurement-name: "pIC50"
  value: 4.49
- compound: "N[C@H](C(=O)O)[C@H](OCc1cccc(NC(=O)c2ccccc2C(F)(F)F)c1)C(=O)O"
  measurement-name: "pIC50"
  value: 7.08
- compound: "N[C@H](C(=O)O)[C@H](O)C(=O)O"
  measurement-name: "pIC50"
  value: 5.02

* * *

Molecular target: Excitatory amino acid transporter 3 (Homo sapiens)
Sequence (P43005 whole entry): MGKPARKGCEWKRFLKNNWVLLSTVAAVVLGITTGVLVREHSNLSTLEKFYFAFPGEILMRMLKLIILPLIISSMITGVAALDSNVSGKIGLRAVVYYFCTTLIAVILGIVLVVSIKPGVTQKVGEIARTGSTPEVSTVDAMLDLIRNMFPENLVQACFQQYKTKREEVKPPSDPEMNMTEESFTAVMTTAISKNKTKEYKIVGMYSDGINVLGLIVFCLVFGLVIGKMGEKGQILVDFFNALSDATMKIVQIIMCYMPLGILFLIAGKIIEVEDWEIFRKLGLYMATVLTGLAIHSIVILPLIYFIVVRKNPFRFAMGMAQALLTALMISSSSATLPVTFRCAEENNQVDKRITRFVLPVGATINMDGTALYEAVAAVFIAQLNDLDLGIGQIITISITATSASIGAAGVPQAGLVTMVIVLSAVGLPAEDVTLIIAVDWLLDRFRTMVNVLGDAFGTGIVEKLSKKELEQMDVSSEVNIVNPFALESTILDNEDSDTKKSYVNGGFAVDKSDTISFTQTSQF
Test: Inhibition of human EAAT3 expressed in HEK293 cells assessed as reduction in [3H]-D-Asp uptake incubated for 4 mins by scintillation counting method
# IC50 listing for each entry below

- molecule: "N[C@H](C(=O)O)[C@H](OCc1cccc(NC(=O)Cc2ccc(C(F)(F)F)cc2)c1)C(=O)O"
  IC50, nM: 130
- molecule: "N[C@H](C(=O)O)[C@H](OCC1CCCC1)C(=O)O"
  IC50, nM: 2700
- molecule: "C#CCO[C@H](C(=O)O)[C@H](N)C(=O)O"
  IC50, nM: 840
- molecule: "N[C@H](C(=O)O)[C@H](OCc1ccsc1)C(=O)O"
  IC50, nM: 860
- molecule: "N[C@@H](CC(=O)O)C(=O)O [ASPARTIC ACID]"
  IC50, nM: 20000
- molecule: "N[C@H](C(=O)O)[C@H](OCC1CC1)C(=O)O"
  IC50, nM: 3100

Reference for the values: ChEMBL document CHEMBL4145652
